# pEC50 listing for each entry below
# experimental target: 5-hydroxytryptamine receptor 1A (Homo sapiens, UniProt P08908)
# Sequence (P08908 whole entry): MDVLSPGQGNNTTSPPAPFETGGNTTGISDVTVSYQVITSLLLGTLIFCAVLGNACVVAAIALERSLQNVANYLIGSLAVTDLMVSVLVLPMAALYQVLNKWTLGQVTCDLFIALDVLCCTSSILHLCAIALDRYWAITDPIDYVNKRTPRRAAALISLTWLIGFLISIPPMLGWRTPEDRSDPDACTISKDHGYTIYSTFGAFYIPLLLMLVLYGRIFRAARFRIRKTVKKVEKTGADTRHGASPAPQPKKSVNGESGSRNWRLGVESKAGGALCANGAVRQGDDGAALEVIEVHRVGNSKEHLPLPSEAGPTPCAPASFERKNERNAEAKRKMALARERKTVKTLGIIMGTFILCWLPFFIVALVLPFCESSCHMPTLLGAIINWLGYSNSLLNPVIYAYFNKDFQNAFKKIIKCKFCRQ
# protocol summary: Agonist activity at human 5HT1A receptor expressed in human HeLa cells assessed as inhibition of forskolin-stimulated cAMP production […] measured after 2 hrs by RIA
Lab note: report pEC50 as minus log10 of the concentration in molar units, number only.

O=C1CSC(=O)N1CCCCCNCC1CCc2ccccc2O1 (stereo not drawn); 7.47

Per the reported 5-hydroxytryptamine receptor 1A (Homo sapiens, UniProt P08908) data, O=C1C2CCCN2C(=O)N1CCCCCCNCC1CCc2ccccc2O1 (stereo not drawn) has pEC50 of 7.66

Per the reported 5-hydroxytryptamine receptor 1A (Homo sapiens, UniProt P08908) data, O=C1c2ccccc2S(=O)(=O)N1CCCCNCC1CCc2ccccc2O1 (racemic) has pEC50 of 8.82

Per the reported 5-hydroxytryptamine receptor 1A (Homo sapiens, UniProt P08908) data, O=C1C2CCCN2C(=O)N1CCCCCNCC1CCc2ccccc2O1 (stereo not drawn) has pEC50 of 6.80

Per the reported 5-hydroxytryptamine receptor 1A (Homo sapiens, UniProt P08908) data, O=C1CSC(=O)N1CCCCCCCCNCC1CCc2ccccc2O1 (stereo not drawn) has pEC50 of 7.59

Per the reported 5-hydroxytryptamine receptor 1A (Homo sapiens, UniProt P08908) data, Cl.O=C1C2CCCN2C(=O)CN1CCCCNCC1CCc2ccccc2O1 (stereo not drawn) has pEC50 of 6.91

Per the reported 5-hydroxytryptamine receptor 1A (Homo sapiens, UniProt P08908) data, O=C1CSC(=O)N1CCCCCCNCC1CCc2ccccc2O1 (stereo not drawn) has pEC50 of 7.70

Per the reported 5-hydroxytryptamine receptor 1A (Homo sapiens, UniProt P08908) data, O=C1C2CCCN2C(=O)N1CCCNCC1CCc2ccccc2O1 (stereo not drawn) has pEC50 of 7.63

====

pKi: −log10 of the molar value.
// 5-hydroxytryptamine receptor 4 (Rattus norvegicus, UniProt Q62758) pKi records

Cl.O=C1C2CCCN2C(=O)N1CCCCNCCc1cccc2ccccc12 (configuration not stated); < 6.00

Now consider a different compound.
Per the reported 5-hydroxytryptamine receptor 4 (Rattus norvegicus, UniProt Q62758) data, Cl.O=C1C2CCCN2C(=O)CN1CCCCNCC1CCc2ccccc2O1 (configuration not stated) has pKi of < 6.00

====

# experimental target: 5-hydroxytryptamine receptor 1A (Rattus norvegicus)
# Sequence (P19327 whole entry): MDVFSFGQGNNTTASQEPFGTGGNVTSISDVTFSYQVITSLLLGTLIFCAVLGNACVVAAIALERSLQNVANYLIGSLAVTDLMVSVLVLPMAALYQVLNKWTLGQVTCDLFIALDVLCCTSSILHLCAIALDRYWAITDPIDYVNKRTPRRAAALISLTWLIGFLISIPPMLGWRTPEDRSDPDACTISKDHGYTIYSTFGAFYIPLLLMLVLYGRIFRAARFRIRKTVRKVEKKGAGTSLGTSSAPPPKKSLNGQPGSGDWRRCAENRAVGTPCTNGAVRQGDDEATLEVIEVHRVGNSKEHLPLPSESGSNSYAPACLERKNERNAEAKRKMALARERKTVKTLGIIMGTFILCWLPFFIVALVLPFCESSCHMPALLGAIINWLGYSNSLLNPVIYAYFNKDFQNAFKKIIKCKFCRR
# Ki listing for each entry below

O=C1C2CCCN2C(=O)N1CCCCNCc1ccccn1 (stereo not drawn); > 1000 nM

Record summary for O=C1C2CCCN2C(=O)N1CCCCNCCc1ccco1 (stereo not drawn) : reported Ki = > 1000 nM

Record summary for O=C1C2CCCN2C(=O)N1CCCCNCc1ccc2ccccc2c1 (stereo not drawn) : reported Ki = 49 nM

====

# experimental target: 5-hydroxytryptamine receptor 7 (Rattus norvegicus)
# Sequence (P32305 whole entry): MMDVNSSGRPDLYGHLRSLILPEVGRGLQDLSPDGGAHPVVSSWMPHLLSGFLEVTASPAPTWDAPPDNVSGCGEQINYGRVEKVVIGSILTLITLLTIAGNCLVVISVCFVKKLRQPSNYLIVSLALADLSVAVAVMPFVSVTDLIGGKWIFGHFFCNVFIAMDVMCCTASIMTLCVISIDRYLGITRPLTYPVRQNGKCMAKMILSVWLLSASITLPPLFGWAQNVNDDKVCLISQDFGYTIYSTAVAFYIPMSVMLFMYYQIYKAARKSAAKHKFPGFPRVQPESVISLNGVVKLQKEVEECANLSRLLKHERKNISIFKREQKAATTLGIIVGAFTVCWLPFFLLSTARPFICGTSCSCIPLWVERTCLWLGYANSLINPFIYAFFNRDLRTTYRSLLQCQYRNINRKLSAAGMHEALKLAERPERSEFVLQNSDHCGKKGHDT
measurement name: Ki (nM)
Give the number; nM is assumed, so skip it.

Per the reported 5-hydroxytryptamine receptor 7 (Rattus norvegicus) data, Cl.O=C1C2CCCN2C(=O)CN1CCCCNCC1CCc2ccccc2O1 (configuration not stated) has Ki of 418

====

// UniProtKB P19327 Ki records

O=C1C2CCCN2C(=O)N1CCCCNCc1ccccc1 (configuration not stated); > 1000 nM

Record summary for O=C1C2CCCN2C(=O)N1CCCCNCc1cccc2ccccc12 (configuration not stated) : reported Ki = > 1000 nM

Record summary for O=C1C2CCCN2C(=O)N1CCCCNCCc1ccccn1 (configuration not stated) : reported Ki = > 1000 nM

Record summary for O=C1C2CCCN2C(=O)N1CCCCNCCc1ccccc1 (configuration not stated) : reported Ki = > 1000 nM

Record summary for O=C1C2CCCN2C(=O)N1CCCCNCCc1cccs1 (configuration not stated) : reported Ki = > 1000 nM

Record summary for O=C1C2CCCN2C(=O)N1CCCNCC1CCc2ccccc2O1 (configuration not stated) : reported Ki = 8.2 nM

Record summary for O=C1C2CCCN2C(=O)N1CC#CCNCC1CCc2ccccc2O1 (configuration not stated) : reported Ki = > 1000 nM

====

# Ki listing for each entry below
# experimental target: Adrenergic receptor alpha-1 (Rattus norvegicus, UniProt P15823+P23944+P43140)
# protocol summary: Displacement of [3H]prazosin from alpha1 adrenoceptor in Sprague-Dawley albinus rat cerebral cortex membranes after 30 mins
# Format: cell membranes, Membrane

Cl.O=C1C2CCCN2C(=O)N1CCCCNCCc1cccc2ccccc12 (centres undefined); > 1000 nM

Record summary for Cl.O=C1C2CCCN2C(=O)CN1CCCCNCC1CCc2ccccc2O1 (centres undefined) : reported Ki = 107 nM

Record summary for Cl.O=C1C2CCCN2C(=O)N1CCCCNCCc1ccc2ccccc2c1 (centres undefined) : reported Ki = 99 nM

Record summary for Cl.O=C1C2CCCCN2C(=O)CN1CCCCNCC1CCc2ccccc2O1 (centres undefined) : reported Ki = 67 nM

====

# Emax listing for each entry below
# experimental target: UniProtKB P08908
# protocol summary: Agonist activity at human 5HT1A receptor expressed in human HeLa cells assessed as inhibition of forskolin-stimulated cAMP production pretreated 20 mins before forskolin challenge measured after 2 hrs by RIA relative to control
# Type: functional, cell-based
Units required after the number.

A selection of reference data follows.
O=C1C2CCCCN2C(=O)N1CCCCNCC1CCc2ccccc2O1 (configuration not stated); 77.9%
O=C1CSC(=O)N1CCCCCCCCNCC1CCc2ccccc2O1 (configuration not stated); 88.6%
O=C1CSC(=O)N1CCCCCCNCC1CCc2ccccc2O1 (configuration not stated); 87%
O=C1C2CCCN2C(=O)N1CCCCCNCC1CCc2ccccc2O1 (configuration not stated); 92.5%
Cl.O=C1C2CCCN2C(=O)CN1CCCCNCC1CCc2ccccc2O1 (configuration not stated); 87.6%

Now consider a different compound.
Record summary for O=C1C2CCCN2C(=O)N1CCCCNCc1ccc2ccccc2n1 (configuration not stated) : reported Emax = 75.8%

====

# experimental target: 5-hydroxytryptamine receptor 3A (Rattus norvegicus)
# Sequence (P35563 whole entry): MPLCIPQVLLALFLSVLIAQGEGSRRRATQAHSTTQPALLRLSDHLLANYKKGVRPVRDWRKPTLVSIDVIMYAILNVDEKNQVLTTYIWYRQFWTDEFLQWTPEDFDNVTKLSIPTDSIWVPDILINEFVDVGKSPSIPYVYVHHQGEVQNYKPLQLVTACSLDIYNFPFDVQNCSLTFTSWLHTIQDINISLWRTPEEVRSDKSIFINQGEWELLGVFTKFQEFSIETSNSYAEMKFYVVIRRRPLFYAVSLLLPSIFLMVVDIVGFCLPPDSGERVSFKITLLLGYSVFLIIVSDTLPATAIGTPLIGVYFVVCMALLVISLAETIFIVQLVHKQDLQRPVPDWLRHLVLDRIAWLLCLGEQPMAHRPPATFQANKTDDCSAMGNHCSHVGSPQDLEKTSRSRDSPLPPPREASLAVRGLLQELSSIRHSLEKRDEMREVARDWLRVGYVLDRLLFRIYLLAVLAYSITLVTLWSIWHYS
measurement name: Ki

Record summary for Cl.O=C1C2CCCN2C(=O)CN1CCCCNCC1CCc2ccccc2O1 (stereo unspecified) : reported Ki = > 1 µM

====

# experimental target: 5-hydroxytryptamine receptor 1A (Rattus norvegicus)
# pKi listing for each entry below
Lab note: report pKi as minus log10 of the concentration in molar units, number only.

O=C1C2CCCN2C(=O)N1Cc1ccc(CNCC2CCc3ccccc3O2)cc1 (stereo not given); 7.55
O=C1CSC(=O)N1CCCCNCC1CCc2ccccc2O1 (stereo not given); 7.82

Now consider a different compound.
Per the reported 5-hydroxytryptamine receptor 1A (Rattus norvegicus) data, Cl.O=C1C2CCCN2C(=O)CN1CCCCNCC1CCc2ccccc2O1 (stereo not given) has pKi of 7.68

====

# experimental target: 5-hydroxytryptamine receptor 1A (Homo sapiens)
# protocol summary: Agonist activity at human 5HT1A receptor expressed in human HeLa cells assessed as inhibition of forskolin-stimulated cAMP production pretreated 20 mins before forskolin challenge measured after 2 hrs by RIA relative to control
# Assay type: functional, cell-based
# Emax listing for each entry below
Give the number; % is assumed, so skip it.

A selection of reference data follows.
O=C1C2CSCN2C(=O)N1CCCCNCC1CCc2ccccc2O1 (stereo unspecified); 89.3
O=C1C2CCCN2C(=O)N1CCCNCC1CCc2ccccc2O1 (stereo unspecified); 94.3

Record summary for O=C1c2ccccc2S(=O)(=O)N1CCCCNCC1CCc2ccccc2O1 (racemic) : reported Emax = 94.8

Record summary for O=C1CSC(=O)N1CCCCCNCC1CCc2ccccc2O1 (stereo unspecified) : reported Emax = 94.8

Record summary for O=C1CSC(=O)N1CCCCNCC1CCc2ccccc2O1 (stereo unspecified) : reported Emax = 89.6

Record summary for O=C1C2CCCN2C(=O)N1CCCCCCNCC1CCc2ccccc2O1 (stereo unspecified) : reported Emax = 91.2
